Property: Potency; scope: individual compounds
target: Cytochrome P450 2C9 (Homo sapiens) (UniProt P11712); test: Cytochrome P450 family 2 subfamily C member 9 (CYP2C9) small molecule antagonists: luciferase biochemical (cell-free) qHTS assay (AID 1645842); settings: P450-Glo CYP2C9 enzyme assay, luciferin luminescence; series mostly up to 57.4 µM; also: potency is read from the fitted curve at half-maximal effect; nearly all actives have a fitted effect of over 55% in size
Sequence (P11712 whole entry, looked up): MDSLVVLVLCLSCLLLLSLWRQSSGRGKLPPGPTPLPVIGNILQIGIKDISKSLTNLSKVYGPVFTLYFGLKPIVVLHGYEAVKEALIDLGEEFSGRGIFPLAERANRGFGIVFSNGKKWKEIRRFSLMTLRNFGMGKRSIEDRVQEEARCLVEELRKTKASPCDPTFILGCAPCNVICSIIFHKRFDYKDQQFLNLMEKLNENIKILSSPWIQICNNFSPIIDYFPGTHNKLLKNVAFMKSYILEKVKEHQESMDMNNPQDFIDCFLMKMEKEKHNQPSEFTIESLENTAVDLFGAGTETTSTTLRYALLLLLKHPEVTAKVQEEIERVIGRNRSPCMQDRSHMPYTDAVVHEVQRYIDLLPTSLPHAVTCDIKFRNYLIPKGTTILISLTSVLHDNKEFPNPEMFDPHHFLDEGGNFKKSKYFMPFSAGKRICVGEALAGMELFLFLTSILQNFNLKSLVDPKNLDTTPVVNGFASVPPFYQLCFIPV
Records with an inconclusive call do not appear. Active and inactive are the calls of the source. Calls follow the shape of the dose curve; as a rule, active = well fitted inhibition curve with a large enough effect in the repeat runs; inconclusive = weak or mixed curves; inactive = no such curve, though single readings can be large or run the other way.

Please report the measured Potency for "Cc1ccc(NC(=O)Cn2c(=O)n(CCC(=O)NCc3ccc4c(c3)OCO4)c(=O)c3sccc32)c(C)c1" tested on Cytochrome P450 2C9 (Homo sapiens) (UniProt P11712).
2130 nM (active)

Please report the measured Potency for "COc1ccc(CCNC(=O)Cn2nc(C)c3c(C)n(-c4ccc(C)cc4)nc3c2=O)c(OC)c1" tested on Cytochrome P450 2C9 (Homo sapiens) (UniProt P11712).
8490 nM (active)

Please report the measured Potency for "Cc1cccc2nc(-c3ccccn3)c(Nc3ccccc3)n12" tested on Cytochrome P450 2C9 (Homo sapiens) (UniProt P11712).
1200 nM (active)

Please report the measured Potency for "CCOC(=O)N1CCc2c(sc3c2c(=O)n(CCc2ccccc2)c(=O)n3CC(=O)Nc2cccc(C)c2)C1" tested on Cytochrome P450 2C9 (Homo sapiens) (UniProt P11712).
1690 nM (active)

Please report the measured Potency for CN1C(=O)NC(Cc2c[nH]c3c(Cl)cccc23)C1=O (stereo not given) tested on Cytochrome P450 2C9 (Homo sapiens) (UniProt P11712).
13500 nM (active)
